molecular target: Integrin alpha-M/beta-2 (Homo sapiens, UniProt P05107+P11215); test: Agonist activity at CD11b/CD18 expressed in K562 cells assessed as increase in cell adhesion to fibrinogen; type: functional, cell-based; settings: read-out: EC50
Sequence (P05107 23-769 limits assumed, other chains not shown): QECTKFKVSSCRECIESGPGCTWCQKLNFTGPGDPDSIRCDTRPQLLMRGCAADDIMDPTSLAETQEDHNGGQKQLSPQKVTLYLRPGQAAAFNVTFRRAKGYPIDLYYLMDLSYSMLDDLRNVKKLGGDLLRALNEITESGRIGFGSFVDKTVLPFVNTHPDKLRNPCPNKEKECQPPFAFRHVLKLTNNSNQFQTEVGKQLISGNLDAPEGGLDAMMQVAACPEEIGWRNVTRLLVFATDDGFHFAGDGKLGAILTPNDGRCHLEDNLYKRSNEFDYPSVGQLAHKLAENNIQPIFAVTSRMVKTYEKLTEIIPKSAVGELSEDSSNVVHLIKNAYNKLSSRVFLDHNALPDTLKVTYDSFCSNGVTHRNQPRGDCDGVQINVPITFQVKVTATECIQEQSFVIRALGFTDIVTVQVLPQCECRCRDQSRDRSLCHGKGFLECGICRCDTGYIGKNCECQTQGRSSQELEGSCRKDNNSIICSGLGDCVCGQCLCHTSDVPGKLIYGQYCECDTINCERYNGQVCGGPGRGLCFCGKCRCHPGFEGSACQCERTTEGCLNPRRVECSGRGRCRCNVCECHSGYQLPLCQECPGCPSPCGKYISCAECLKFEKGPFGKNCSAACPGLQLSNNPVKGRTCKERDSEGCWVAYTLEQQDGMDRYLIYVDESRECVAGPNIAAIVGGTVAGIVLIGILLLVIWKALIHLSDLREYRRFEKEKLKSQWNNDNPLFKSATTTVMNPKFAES
measurementType: pEC50
Quick note: pEC50 means taking -log10 of the concentration in moles per liter.

Examples with their reported pEC50 follow.
- molecularString: "CCOC(=O)CN1C(=O)S/C(=C\\c2ccc(N3CCCC3)o2)C1=O"
  pEC50: 4.63
- molecularString: "CCOC(=O)CN1C(=O)S/C(=C\\c2ccc(-c3ccc(Br)cc3)o2)C1=O"
  pEC50: 4.39
- molecularString: "CCOC(=O)CN1C(=O)S/C(=C\\c2ccc(-c3ccc(Cl)cc3Cl)o2)C1=O"
  pEC50: 4.87
- molecularString: "Cc1cccc(NC(=O)CN2C(=O)S/C(=C\\c3ccc(-c4ccccc4)o3)C2=O)c1"
  pEC50: 4.65
- molecularString: "CCOC(=O)CN1C(=O)S/C(=C\\c2ccc(-c3ccccc3)o2)C1=O"
  pEC50: 4.98
- molecularString: "Cc1cccc(NC(=O)CN2C(=O)/C(=C/c3ccc(Cc4ccco4)o3)SC2=S)c1"
  pEC50: 4.74
- molecularString: "CCOC(=O)CN1C(=O)S/C(=C\\c2ccc(-c3ccc(C)cc3Br)o2)C1=O"
  pEC50: 4.73
- molecularString: "O=C(CN1C(=O)S/C(=C\\c2ccc(-c3ccc(Cl)cc3Cl)o2)C1=O)c1ccccc1"
  pEC50: 4.45

Field: next compound
The recorded pEC50 for entry CCOC(=O)CN1C(=O)S/C(=C\c2ccc(-c3cc(C(=O)O)ccc3Cl)o2)C1=O equals 4.39
